measurement description: OD615 S. cerevisiae growth inhibition, permissive medium, pilot counter-assay, permissive growth control for S. cerevisiae lifespan shortening project (AID 705)
stated conditions: OD615, 24 h, at 10 µM, hits give high values
experimental readout: growth inhibition (%)

Cc1ccc(C)c(N2CCN(C(=O)C3CCCN(S(=O)(=O)c4cnc[nH]4)C3)CC2)c1 (configuration not stated) ... 5.12
O=C1CC(Nc2ccc(N3CCOCC3)cc2)C(=O)N1c1ccccc1F (configuration not stated) ... 1.41
Cc1ccc(-n2ncc3c(=O)[nH]c(SCC(=O)N4CCCC4)nc32)cc1C ... -6.01
CC(=O)N1CCN(c2ccc(NCc3ccc(C)s3)cc2)CC1 ... -5.79
c1ccc2c(c1)OCC(c1csc3ncnc(N4CCOCC4)c13)O2 (configuration not stated) ... -14.1
CCOC(=O)Cn1c(C(C)=O)nc2ccccc21 ... -18.1
O=C(CN1CCN(c2ccccc2F)CC1)c1ccc2cc[nH]c2c1 ... -12.6

---

measurement description: RAM signaling pathway blockade in yeast – S. cerevisiae, Pdr1DBD-CYC8 efflux-inhibited sensitized strain, primary screen (AID 1298);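 note: 0% = DMSO untreated cells without growth and 100% = 10 µM 1-NA-PP1 full growth; higher means more yeast growth rescued from 5-FOA killing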
stated conditions: S. cerevisiae cbk1-as DSE1-URA3 strain, 5-FOA growth OD615, 2 d; at 50 µM; hits give high values
experimental readout: RAM network inhibition (%)

COc1nc(Nc2ccc(C(C)=O)cc2)nc(OC)n1 ... 6.28
O=C(CC1c2ccccc2Oc2ccccc21)N1CCN(c2ccccn2)CC1 ... 4.78
C=CCNC(=O)C1CCN(S(=O)(=O)c2ccc(Br)cc2)CC1 ... 1.76
CCN1CCN(Cc2nc3c(c(=O)n(C)c(=O)n3C)n2Cc2ccccc2Cl)CC1 ... 0.71
COc1ccc(N(CC(=O)Nc2nccs2)S(=O)(=O)c2c(C)nn(C)c2C)cc1 ... 3.8
O=C(Nc1ccccc1)c1ccccc1O ... -1.46

---

measurement description: OD615 S. cerevisiae growth inhibition, permissive medium, pilot counter-assay, permissive growth control for S. cerevisiae lifespan shortening project (AID 705)
stated conditions: OD615, 24 h, at 10 µM, hits give high values
experimental readout: growth inhibition (%)

CC(=O)C1=C(C)NC(=O)NC1c1ccccc1 (stereo not drawn) ... -7.36
COc1cc(C2N(c3ccccc3)CCN2c2ccccc2)ccc1OC(C)=O ... -18.8
Cc1noc(C(=O)Nc2sc3c(c2C#N)CCC3)c1Cl ... -6.86

---

measurement description: OD615 S. cerevisiae growth inhibition, permissive medium, pilot counter-assay, permissive growth control for S. cerevisiae lifespan shortening project (AID 705)
stated conditions: OD615, 24 h, at 10 µM
Calls of active or inactive are those of the source.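 How the source made its calls: active means growth inhibition above 25% in both replicates, a cutoff set 3 SD above the mean; inconclusive means above 25% in only one replicate; inactive means the rest.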
Outcome codes: active, inactive

COc1ccc(N2CCCCn3c2nc2c3c(=O)[nH]c(=O)n2C)cc1 ... inactive
COc1ccccc1N1CCN(Cc2cc(Br)c(O)c3ncccc23)CC1 ... active
O=C(Nc1ccncc1)c1ccc2c(c1)OCCO2 ... inactive
O=C(NCc1ccc(Cl)c(Cl)c1)c1ccco1 ... inactive

---

measurement description: RAM signaling pathway blockade in yeast – S. cerevisiae, Pdr1DBD-CYC8 efflux-inhibited sensitized strain, primary screen (AID 1298);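 note: 0% = DMSO untreated cells without growth and 100% = 10 µM 1-NA-PP1 full growth; higher means more yeast growth rescued from 5-FOA killing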
stated conditions: S. cerevisiae cbk1-as DSE1-URA3 strain, 5-FOA growth OD615, 2 d; at 50 µM; hits give high values
Below, each of the compounds is paired with its reported RAM network inhibition value.
experimental readout: RAM network inhibition (%)

O=C(Cn1cnc2c(cnn2-c2ccc(F)cc2)c1=O)NCCc1ccccc1 ... 6.6
CCOc1ccc(OCC)c(NS(=O)(=O)c2cccc3nsnc23)c1 ... 3.41
COc1ccc2c(c1)NC1(O)c3ccccc3C(=O)C21O (stereo not drawn) ... 3.44

---

// values below are reported RAM network inhibition
measurement description: RAM signaling pathway blockade in yeast – S. cerevisiae, Pdr1DBD-CYC8 efflux-inhibited sensitized strain, primary screen (AID 1298);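 note: 0% = DMSO untreated cells without growth and 100% = 10 µM 1-NA-PP1 full growth; higher means more yeast growth rescued from 5-FOA killing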
stated conditions: S. cerevisiae cbk1-as DSE1-URA3 strain, 5-FOA growth OD615, 2 d; at 50 µM; hits give high values
experimental readout: RAM network inhibition (%)

Cc1ccc2oc(=O)c3cc(C(=O)N4CCN(c5ncccn5)CC4)sc3c2c1 ... 2.64
CCCc1cc(C(=O)NCC(C)C)no1 ... 1.2
COc1ccc(Br)cc1CNC(=O)C1CCC(=O)N1C(C)C (stereo not given) ... 3.58
COc1ccccc1N1CCN(CC(=O)c2ccc3ccn(C(C)=O)c3c2)CC1 ... 3.27
CCN(CC)CCCNC(=O)Cn1cc2c(n1)CCC(C)C2 (stereo not given) ... 2.3
COCCN1C(=O)c2oc3ccccc3c(=O)c2C1c1cccc(O)c1 (stereo not given) ... 2.85
COc1ccc(-n2nc(C(=O)N3CCC(C#N)CC3)c3c4ccccc4n(C)c3c2=O)cc1 ... 7.49
O=C(CCS(=O)(=O)c1cccc2nonc12)NCCc1ccccc1Cl ... 4.14
Cc1cc(N2C(=O)C3CC=CCC3C2=O)cc(C)c1Br (stereo not given) ... 6.44
OCCn1c(SCCOc2ccccc2F)nc2ccccc21 ... 2.71
Cc1nnc(SCC(=O)Nc2ccc3c(c2)OCO3)o1 ... 4.08
Cc1ccc(C(=O)Nc2ccc(S(=O)(=O)N3CCN(C)CC3)cc2)o1 ... 3.17
CN(C)Cc1cc(C(C)(C)C)c(O)c(C(C)(C)C)c1 ... 5.72
Cc1cccc(NC(=O)CN2CCN(CC(=O)Nc3cccc(C)c3)CC2)c1 ... 2.17
COc1ccc(NC(=O)CCCC2=NS(=O)(=O)c3ccccc3N2)cc1 ... 3.11
CC(C)NC(=O)c1ccc(CS(=O)(=O)c2ccc(Br)cc2)o1 ... 4.82
Cc1ccc(-c2nc(CS(=O)(=O)CC(=O)N3CCc4ccccc4C3)c(C)o2)cc1 ... 7.91
CCOCCCNC(=O)C(NC(=O)c1cnccn1)c1ccc(OC)cc1 (stereo not given) ... 2.15
CCOC(=O)NC(C(F)(F)F)(C(F)(F)F)P(=O)(c1ccccc1)c1ccccc1 ... 4.13
Cc1ccc(NC(=O)CN(c2cc(C)cc(C)c2)S(=O)(=O)c2c(C)noc2C)nc1 ... 7.84

---

Parameter: inhibition. Scope: all listed entries.
measurement description: inhibitors of the yeast RAM network, pilot screen, dse1pr::URA3 reporter, 5-FOA selection (AID 869);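 note: 0% = DMSO wells with no growth and 100% = 10 µM 1-NA-PP1 with full growth; RAM network block rescues cells from 5-FOA so hits raise OD615 growth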
stated conditions: S. cerevisiae dse1pr::URA3 5-FOA growth, OD615, 2 d; at 10 µM; hits give high values; strain carries analog-sensitive mutant Cbk1 kinase
experimental readout: inhibition (%)

CS(=O)(=O)NCCCc1ccccc1 ... 0.325
COc1ccc(C(=O)c2cn[nH]c2-c2cc(Cl)ccc2O)cc1 ... 1.17
O=C(Cn1cc2c(n1)CCCC2)Nc1ccccc1Cl ... 1.91
COCc1nnc(SCC(=O)Nc2cccc(Cl)c2C)n1-c1ccccc1 ... 0.57
COc1ccc(Cl)cc1NC(=O)CSc1nnc(Cn2c(=O)sc3ccccc32)n1C ... 4.87

---

measurement description: OD615 S. cerevisiae growth inhibition, permissive medium, pilot counter-assay, permissive growth control for S. cerevisiae lifespan shortening project (AID 705)
stated conditions: OD615, 24 h, at 10 µM, hits give high values
experimental readout: growth inhibition (%)

O=C(Nc1ccc(N2CCOCC2)c(Cl)c1)C1CCCCC1 ... 1.5
CC(C)Cc1nnc(NC(=O)CCN2C(=O)c3ccccc3C2=O)s1 ... 5.23
CC1(C)CC(=O)C(C=NCc2cccnc2)=C(O)C1 ... -10.7
Cn1c(Cn2c(=O)sc3ccccc32)nnc1SCC(=O)N1CCN(c2ccccc2)CC1 ... 0.845
CCCCSc1nnc(C)c(=O)[nH]1 ... -8.76
COc1cccc(-c2nc(CS(=O)(=O)CC(=O)N3CCN(C4CCCCC4)CC3)c(C)o2)c1 ... 1.34
CCSC1=C(C#N)C(c2ccccc2C)CC(=O)N1 (stereo not given) ... -9.12
Cc1cc(C)n(-c2ncc(-c3ccccc3)nn2)n1 ... -2.83
CCCCOC(=O)CSc1nnc(N)s1 ... -4.92
CCN1CCN(CC(=O)Nc2ccc(C)cc2C)C(=O)C1=O ... 2.74
CCOC(=O)C(C)Sc1nnc(Cn2c(=O)sc3ccccc32)n1-c1ccccc1 (stereo not given) ... 2.42
COc1ccc(C2CC3CC(c4ccccc4)N2O3)cc1 (stereo not given) ... -3.88
CCOC(=O)N1CCN(C(=O)C(NC(=O)C2CCC(C)CC2)C(C)C)CC1 (stereo not given) ... 10.9
COc1ccc(N(CC(=O)N2CCN(C)CC2)S(=O)(=O)c2ccccc2)cc1OC ... -16.8
Cn1cccc1Cc1nnc(SCC(=O)Nc2ccc3c(c2)OCO3)n1-c1ccc(F)cc1 ... 8.39
CCN(CC)Cc1c[nH]c2c(C(=O)OC)cccc12 ... -11.4
COc1ccc(Cc2nnc(-c3cccc(C)c3)o2)cc1OC ... -11.4
O=C(CSc1nc(-c2ccco2)cc(C(F)(F)F)n1)N1CCN(Cc2ccccc2)CC1 ... -6.8
COCCNS(=O)(=O)c1cccc2cccnc12 ... -1.37
CC(C)n1c(CCC(=O)O)ccc1-c1ccccc1 ... 3.21
Cn1nc(-c2ccc(Cl)cc2)c2cc(C(=O)N3CCN(c4ccccc4)CC3)sc21 ... -0.325
Cn1c(NC(=O)CCc2ccccc2)cc(=O)n(C)c1=O ... -8.68
Cn1cc(SCC(=O)Nc2ccc3c(c2)OCO3)c2ccccc21 ... -6.75
COC(=O)c1ccc(CSc2ncn[nH]2)o1 ... -2.62
CCCC12CN3CC(CCC)(CN(C1)C3C(O)C(O)C(O)CO)C2=O (stereo not given) ... 4.31
